read-out: Paternally Expressed 10 (PEG10), PEG10 (gene 23089); assay: LTEA_HepaRG_PEG10: Life Technologies and Expression Analysis (LTEA) Assay for Paternally Expressed 10 (PEG10) using HepaRG (AID 2283520); conditions: mRNA level, 48 h; actives raise or lower the signal
Activity calls are given as the source filed them. How the source made its calls: active means hit-call score of the fitted dose curve at least 0.9, where 1 is the maximum; inactive means score below 0.9.
Classes used: active, inactive

MOLECULE: CCC(C)c1ccc(O)cc1 (centres undefined)
CLASS_NAME: inactive
//
MOLECULE: CN(C)c1ccccc1
CLASS_NAME: inactive
//
MOLECULE: Cc1ccc(N)c(N)c1
CLASS_NAME: inactive
//
MOLECULE: CCC12COCN1COC2
CLASS_NAME: inactive
//
MOLECULE: CCCCOC(=O)c1ccccc1C(=O)OCc1ccccc1
CLASS_NAME: inactive
//
MOLECULE: Nc1ccc(N=Nc2ccccc2)cc1
CLASS_NAME: active
//
MOLECULE: COC(=O)c1ccccc1N
CLASS_NAME: inactive
//
MOLECULE: O=[N+]([O-])c1ccc(Oc2ccc(Cl)cc2Cl)cc1
CLASS_NAME: active
//
MOLECULE: Clc1ccc(C(c2ccc(Cl)cc2)C(Cl)(Cl)Cl)cc1
CLASS_NAME: inactive
//
MOLECULE: CC(C)(C)OOC(C)(C)CCC(C)(C)OOC(C)(C)C
CLASS_NAME: inactive
//
MOLECULE: c1ccc(N=Nc2ccccc2)cc1
CLASS_NAME: inactive
//
MOLECULE: O=C(Nc1ccccc1)c1ccccc1I
CLASS_NAME: active
//
MOLECULE: CNC(=O)Oc1cccc2c1OC(C)(C)C2
CLASS_NAME: inactive
//
MOLECULE: CCNS(=O)(=O)C(F)(F)C(F)(F)C(F)(F)C(F)(F)C(F)(F)C(F)(F)C(F)(F)C(F)(F)F
CLASS_NAME: active

* * *

read-out: sulfotransferase 2A1 (SULT2A1), SULT2A1 (gene 6822); experiment: LTEA_HepaRG_SULT2A1: Life Technologies and Expression Analysis (LTEA) Assay for sulfotransferase 2A1 (SULT2A1) using HepaRG (AID 2283531); conditions: mRNA level, 48 h; actives raise or lower the signal
Activity calls are given as the source filed them. Rule for the calls: active = hit-call score of the fitted dose curve at least 0.9, where 1 is the maximum; inactive = score below 0.9.
Classes used: active, inactive

COMPOUND: CCCSC(=O)N(CCC)CCC
CLASS_NAME: inactive
--
COMPOUND: Clc1ccc(Cl)c(Cl)c1
CLASS_NAME: active
--
COMPOUND: CNC(=O)Oc1cccc2c1OC(C)(C)C2
CLASS_NAME: inactive
--
COMPOUND: Cc1cc(N=Nc2ccccc2C)ccc1N
CLASS_NAME: active
--
COMPOUND: Cc1ccc(N=C=O)cc1N=C=O
CLASS_NAME: active
--
COMPOUND: c1ccc2c(c1)-c1cccc3cccc-2c13
CLASS_NAME: inactive
--
COMPOUND: Nc1ccc(Oc2ccc(N)cc2)cc1
CLASS_NAME: inactive
--
COMPOUND: CCC(C)c1ccc(O)cc1 (stereo unspecified)
CLASS_NAME: inactive
--
COMPOUND: CCCCOC(=O)c1ccccc1C(=O)OCc1ccccc1
CLASS_NAME: inactive
--
COMPOUND: c1ccc(N=Nc2ccccc2)cc1
CLASS_NAME: inactive
--
COMPOUND: O=C1CCCO1
CLASS_NAME: inactive
--
COMPOUND: CS(=O)(=O)NC(=O)c1cc(Oc2ccc(C(F)(F)F)cc2Cl)ccc1[N+](=O)[O-]
CLASS_NAME: inactive
--
COMPOUND: O=C(O)C1C2CCC(O2)C1C(=O)O (stereo unspecified)
CLASS_NAME: active
--
COMPOUND: Cc1ccc(N)cc1
CLASS_NAME: inactive
--
COMPOUND: CC(C)(C)OOC(C)(C)CCC(C)(C)OOC(C)(C)C
CLASS_NAME: inactive
--
COMPOUND: O=C(Oc1ccc(Br)cc1)N1CCN2CCC1CC2
CLASS_NAME: inactive
--
COMPOUND: OCCCl
CLASS_NAME: inactive
--
COMPOUND: Clc1ccc(C(c2ccc(Cl)cc2)C(Cl)Cl)cc1
CLASS_NAME: inactive
--
COMPOUND: Oc1ccccc1Cl
CLASS_NAME: inactive
--
COMPOUND: CN(C)c1ccccc1
CLASS_NAME: inactive
--
COMPOUND: COc1cc(C=O)cc2c1[C@H](COC(N)=O)[C@]1(OC(C)=O)ON2C[C@H]2[C@@H]1N2C(C)=O
CLASS_NAME: inactive
--
COMPOUND: Oc1ccc2ccc3cccc4ccc1c2c34
CLASS_NAME: inactive
--
COMPOUND: Nc1ccc(N=Nc2ccccc2)cc1
CLASS_NAME: active
--
COMPOUND: [Cl-].[Cl-].[Hg+2]
CLASS_NAME: inactive
--
COMPOUND: N#CC(Br)(Br)C(N)=O
CLASS_NAME: inactive
--
COMPOUND: OCCOCCO
CLASS_NAME: inactive
--
COMPOUND: OCCCBr
CLASS_NAME: inactive
--
COMPOUND: CCCCCOC(=O)c1ccccc1C(=O)OCCCCC
CLASS_NAME: inactive
--
COMPOUND: CO[C@@H]1[C@H](OC(=O)NC(=O)CCl)CC[C@]2(CO2)[C@H]1[C@@]1(C)O[C@@H]1CC=C(C)C
CLASS_NAME: inactive
--
COMPOUND: COC(=O)c1ccccc1N
CLASS_NAME: inactive
--
COMPOUND: CCC12COCN1COC2
CLASS_NAME: inactive
